Test system: KIT(V559D);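 further: KINOMEscan scanMAX binding as percent activity remaining versus control; lower means stronger binding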
Settings: Compound Concentration (nM):1000
# if value of Percent Control reaches 50%, tag 1; if it stays below, tag -1

1) Cl.c1ccc(Cc2nc3ccc(Nc4ncnc5ccccc45)cc3[nH]2)cc1 [GR269666A] : 1
2) NS(=O)(=O)c1ccc(N/N=C2\C(=O)Nc3ccc(C(=O)NCc4ccncc4)cc32)cc1 [GW300657X] : 1
3) Cl.O=C(Nc1ccc(Oc2ccc3[nH]c(NC(=O)c4ccco4)nc3c2)cc1)Nc1cc(C(F)(F)F)ccc1F [GW683134A] : -1
4) COc1ccc2[nH]c3c4[nH]c5ccc(OC)cc5c4c4c(c3c2c1)C(=O)NC4=O [GW296115X] : -1
5) COc1cc(N2CCN(C(C)C)CC2)ccc1Nc1nc(Nc2ccc(F)cc2C(=O)NC[C@@H](O)CO)c2cc[nH]c2n1 [GSK1392956A] : 1
6) O=C(Nc1n[nH]c2nc(-c3ccc(O)cc3)c(Br)cc12)C1CC1 : 1
7) O=C1Nc2ccc(C(=O)c3ccco3)cc2C1=Cc1cc(Cl)c(O)c(Cl)c1 [GW406108X] : 1

Where do the numbers come from? From paper PMC7826789.
